Target: T1, human gastric inhibitory peptide receptor (GIPR) (human, UniProt P48546 22-466)
T1 sequence (looked up): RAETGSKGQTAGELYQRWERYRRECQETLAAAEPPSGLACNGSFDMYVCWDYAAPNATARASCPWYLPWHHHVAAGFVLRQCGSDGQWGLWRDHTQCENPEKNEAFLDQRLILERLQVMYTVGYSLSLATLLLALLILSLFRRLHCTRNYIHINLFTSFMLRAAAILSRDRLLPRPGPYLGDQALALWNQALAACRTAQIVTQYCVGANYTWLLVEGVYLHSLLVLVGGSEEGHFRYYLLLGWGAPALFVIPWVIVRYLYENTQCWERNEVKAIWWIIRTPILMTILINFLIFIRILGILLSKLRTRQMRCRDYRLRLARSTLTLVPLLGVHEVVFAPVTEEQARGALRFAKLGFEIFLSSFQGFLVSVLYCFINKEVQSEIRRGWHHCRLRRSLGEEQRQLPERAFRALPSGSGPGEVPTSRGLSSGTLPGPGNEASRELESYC
Assay: cell-based or functional assay
Please respond with reported hGIPR cAMP EC50 ratio for every item in the list.
Kindly provide the number alone.

Q: What value of measured hGIPR cAMP EC50 ratio is listed for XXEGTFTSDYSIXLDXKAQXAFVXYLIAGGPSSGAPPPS (D-Tyr1; Aib2; αMeL13; Orn16; K17 conjugated to (2-[2-(2-Amino-ethoxy)-ethoxy]-acetyl)2-(γ-Glu)-CO-(CH2)16-CO2H; Aib20; D-Glu24; C-terminal amide (NH2)) ?
Result: 0.347

Q: Using the record for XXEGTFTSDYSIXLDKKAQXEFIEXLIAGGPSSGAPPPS (D-Tyr1; Aib2; αMeL13; K17 conjugated to (2-[2-(2-Amino-ethoxy)-ethoxy]-acetyl)-(γ-Glu)-CO-(CH2)18-CO2H; Aib20; αMeY25; C-terminal amide (NH2)) , report its hGIPR cAMP EC50 ratio.
Result: 0.68

Q: Given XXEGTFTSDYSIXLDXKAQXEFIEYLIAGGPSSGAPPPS (D-Tyr1; Aib2; αMeL13; Orn16; K17 conjugated to (2-[2-(2-Amino-ethoxy)-ethoxy]-acetyl)2-(γ-Glu)-CO-(CH2)16-CO2H; Aib20; C-terminal amide (NH2)) , state its recorded hGIPR cAMP EC50 ratio.
Result: 0.109
